Where do the numbers come from? From ChEMBL document CHEMBL4196200.

Measured pKi accompanies every entry in the list below.
- TESTED_SYSTEM: Vasopressin V2 receptor (Homo sapiens)
- Sequence (P30518 whole entry): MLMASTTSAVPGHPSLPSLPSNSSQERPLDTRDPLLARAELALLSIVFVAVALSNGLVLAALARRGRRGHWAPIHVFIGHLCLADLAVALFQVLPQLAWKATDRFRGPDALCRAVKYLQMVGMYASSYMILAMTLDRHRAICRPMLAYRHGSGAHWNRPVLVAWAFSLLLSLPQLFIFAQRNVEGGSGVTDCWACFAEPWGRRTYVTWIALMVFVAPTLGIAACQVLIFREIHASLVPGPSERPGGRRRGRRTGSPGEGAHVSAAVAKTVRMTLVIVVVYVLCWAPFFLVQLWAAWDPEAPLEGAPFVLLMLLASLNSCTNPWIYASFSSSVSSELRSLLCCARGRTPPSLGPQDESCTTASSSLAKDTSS
- TEST_SUMMARY: Displacement of [3H]-AVP from human V2 receptor expressed in CHO cell membranes by radioligand binding assay
pKi: −log10 of the molar value.
MEASURED_PROPERTY: pKi

>>> value_reported("Cc1ccn(-c2ccc(C(=O)N3CCCCCC3)c(Cl)c2)n1")
"> 8.00"
>>> value_reported("Nc1ccc(C(=O)N2CCCCc3ccccc32)cc1")
"< 6.00"
>>> value_reported("C[N+](C)(C)c1ccc(C(=O)N2CCCCc3ccccc32)cc1")
"< 6.00"
>>> value_reported("Cc1ccn(-c2ccc(C(=O)N3CCCC(N(C)C)c4ccccc43)cc2)n1 (configuration not stated)")
"< 6.00"
>>> value_reported("Cc1ccn(-c2ccc(C(=O)N3CCCC(=O)c4ccccc43)cc2)n1")
"< 6.00"
>>> value_reported("Cc1ccn(-c2ccc(C(=O)N3CCCC(=O)c4ccccc43)c(Cl)c2)n1")
"> 8.00"
>>> value_reported("CC(=O)Nc1ccc(C(=O)N2CCCCc3ccccc32)cc1")
"< 6.00"

* * *

Measured pKi accompanies every entry in the list below.
- TESTED_SYSTEM: Vasopressin V1a receptor (Homo sapiens, UniProt P37288)
- Sequence (P37288 whole entry): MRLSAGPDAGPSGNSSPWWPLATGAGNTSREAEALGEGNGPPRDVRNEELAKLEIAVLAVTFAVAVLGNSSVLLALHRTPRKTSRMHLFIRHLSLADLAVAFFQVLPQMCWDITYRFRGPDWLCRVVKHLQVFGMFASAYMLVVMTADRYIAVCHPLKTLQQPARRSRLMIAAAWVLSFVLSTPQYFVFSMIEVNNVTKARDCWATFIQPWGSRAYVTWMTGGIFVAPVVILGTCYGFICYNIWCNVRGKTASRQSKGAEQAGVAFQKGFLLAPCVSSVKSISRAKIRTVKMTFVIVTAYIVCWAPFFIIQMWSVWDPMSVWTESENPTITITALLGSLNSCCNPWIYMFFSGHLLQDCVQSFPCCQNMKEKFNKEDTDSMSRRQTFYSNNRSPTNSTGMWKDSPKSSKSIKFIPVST
- TEST_SUMMARY: Displacement of [3H]-AVP from human V1A receptor expressed in CHO cell membranes by radioligand binding assay
pKi: −log10 of the molar value.
MEASURED_PROPERTY: pKi

>>> value_reported("Cc1ccn(-c2ccc(C(=O)N3CCCC(N(C)C)c4ccccc43)c(Cl)c2)n1 (stereo not given)")
"> 8.00"
>>> value_reported("Cc1ccn(-c2ccc(C(=O)N3CCCC(O)c4ccccc43)c(Cl)c2)n1 (stereo not given)")
"> 8.00"
>>> value_reported("Cc1ccn(-c2ccc(C(=O)N3CCCC(=O)c4ccccc43)c(Cl)c2)n1")
"> 8.00"
>>> value_reported("C[N+](C)(C)c1ccc(C(=O)N2CCCCc3ccccc32)cc1")
"< 6.00"
>>> value_reported("Cc1ccn(-c2ccc(C(=O)N3CCCCCC3)c(Cl)c2)n1")
"> 8.00"
